# key: entry, value: composite z-score
# TARGET_OR_TEST_SYSTEM: Left-right determination factor 2 (Homo sapiens) (UniProt O00292)
# Sequence (O00292 whole entry, looked up): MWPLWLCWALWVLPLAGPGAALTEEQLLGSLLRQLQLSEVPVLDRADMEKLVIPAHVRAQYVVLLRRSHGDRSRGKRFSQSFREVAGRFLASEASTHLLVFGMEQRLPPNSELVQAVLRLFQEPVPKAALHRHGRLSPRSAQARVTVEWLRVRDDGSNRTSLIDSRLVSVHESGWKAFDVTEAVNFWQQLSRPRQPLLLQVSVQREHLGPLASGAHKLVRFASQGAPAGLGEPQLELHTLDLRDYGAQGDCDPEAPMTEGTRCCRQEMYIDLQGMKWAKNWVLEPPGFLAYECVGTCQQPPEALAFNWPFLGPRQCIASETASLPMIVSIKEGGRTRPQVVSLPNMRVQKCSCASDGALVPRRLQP
# ASSAY: LEFTY2 binders on small-molecule microarrays, primary screen, biochemical, small-molecule microarray, 635 nm fluorescence scan (AID 1110)
# CONDITION_CONTEXT: LEFTY2 binding, higher = more signal
Just the number, please.

1. COC(=O)C1=C(C)N(Cc2ccccc2)[C@]23O[C@](C(=O)OC)(C(=O)N2[C@@H]1c1ccccc1)C(C(=O)OC)=C3C(=O)OC | 0.88
2. CCOC(=O)[C@H](CC(C)C)NC(=O)CCC1CC(OC(=O)NCc2cccc3ccccc23)CC2(CCCC(COC(=O)NCCOc3ccccc3)O2)O1 (stereo partly specified) | 0.518

Bench note: what composite z-score did CC(C)CON=C1C[C@@H](O)[C@@H](O)[C@@H]2[C@@H]3C(=O)N(c4ccc(F)cc4F)C(=O)[C@@H]3CC[C@H]12 show?
0.923

Bench note: what composite z-score did CCOC(=O)[C@H](CC(C)C)NC(=O)CCC1CC(OC(=O)NCCc2ccc(F)cc2)CC2(CCCC(COC(=O)NCCOc3ccccc3)O2)O1 (stereo partly specified) show?
1.16

Bench note: what composite z-score did CO[C@H]1COC(=O)[C@@H](C)COC(=O)[C@H](C)NC(=O)CC=C[C@H]1C show?
1.28

Bench note: what composite z-score did COc1ccc(C#C[C@@H]2C=C[C@H](OC(C)=O)[C@@H](COC(C)=O)O2)cc1 show?
0.591

Bench note: what composite z-score did COc1cccc([C@H]2Oc3ccc(OC)cc3C(=NOC[C@@H](O)[C@H]3O[C@@H]4OC(C)(C)O[C@@H]4[C@H]3O)[C@@H]2O)c1 show?
0.583

Bench note: what composite z-score did C[C@@H](c1ccccc1)N1C(=O)[C@H]2[C@H]3[C@H](O)[C@H](O)CC(=NOCc4ccccc4)[C@H]3CC[C@H]2C1=O show?
0.491

Bench note: what composite z-score did Cc1cc2c(c(=O)o1)[C@@H](O)[C@H]1O[C@H]1C2=O show?
0.384

Bench note: what composite z-score did Cc1cc2c(nc1C)CCCCN2CC(C)ON=C1[C@H]2CCn3c(=O)n(-c4ccccc4)c(=O)n3[C@H]2[C@H](O)[C@@H]2O[C@H]12 (stereo partly specified) show?
0.769

Bench note: what composite z-score did CCOC(=O)[C@H](Cc1ccccc1)NC(=O)CCC1CC(OC(=O)NCCc2ccc(F)cc2)CC2(CCCC(COC(=O)NCc3ccccc3)O2)O1 (stereo partly specified) show?
0.829

====

# key: entry, value: composite z-score
# System: Sam68 (KHDRBS1)
# ASSAY: Sam68 small-molecule binders, primary screen, biochemical, small-molecule microarray, 635 nm fluorescence (AID 1125);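 note: score merges 667 nm channel intensity with signal to noise over triplicate slides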
# CONDITION_CONTEXT: small-molecule microarray binding, higher = more signal
Just the number, please.

Worked examples, 6 compounds total:
1. CC(C)CON=C1C[C@@H](O)[C@@H](O)[C@@H]2[C@@H]3C(=O)N(C(C)(C)C)C(=O)[C@@H]3CC[C@H]12 | 1.01
2. CO[C@@H]1C=CCC(=O)N2CCC[C@H]2C(=O)OC[C@@H](C)C(=O)OC[C@H]1C | 0.465
3. CC(CCC(=O)OC[C@H]1O[C@H](C#Cc2ccccc2)C=C[C@@H]1Oc1ccc(C)cc1)=NO[C@H](C)c1cn([C@H](CO)Cc2ccccc2)nn1 | 1.12
4. CCOC(=O)CCN1C(=O)[C@H]2[C@H]3[C@H](O)[C@H](O)CC(=NNC(=O)OCc4ccccc4)[C@@H]3CC[C@H]2C1=O | 1.19
5. CC(C)=NOC[C@@H](C)[C@H](OCc1ccccc1)C(C)C | -1.61
6. COC(=O)[C@H](C)NC(=O)CCC1CC(OC(=O)NCc2cccc3ccccc23)CC2(CCCC(COC(=O)NCC(c3ccccc3)c3ccccc3)O2)O1 (some centres undefined) | 1.32

Bench note: what composite z-score did CO[C@H]1COC(=O)[C@@H](Cc2ccccc2)NC(=O)[C@@H](C)COC(=O)CCC[C@@H]1C show?
0.179

Bench note: what composite z-score did COC(=O)[C@@H]1CC[C@H](C)[C@@H](c2ccc(C)cc2)N1C(=O)c1ccc(C=NO[C@H](C)c2cn([C@@H]3COC[C@H]3O)nn2)cc1 show?
1.21

Bench note: what composite z-score did COc1cccc([C@H]2Oc3ccc(OC)cc3C(=NO[C@H](C)c3cn([C@H](CO)Cc4ccccc4)nn3)[C@@H]2O)c1 show?
-0.779

====

# ASSAY: COS7 lysate on small-molecule microarray, probe aHis, 635 nm (AID 1123);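 note: z-score combines 667nm fluorescence intensity with signal-to-noise per printed compound spot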
# CONDITION_CONTEXT: COS7 cell lysate, fluorescence, higher = more signal
# key: entry, value: composite z-score
Just the number, please.

Worked examples, 3 compounds total:
1. COC(=O)[C@H](C)NC(=O)CCC1CC(OC(=O)NCCc2ccc(F)cc2)CC2(CCCC(COC(=O)NCCC(C)C)O2)O1 (some centres undefined) | 0.834
2. COC(=O)CC=C[C@@H](C)[C@@H](C=NO[C@H](C)c1cn([C@@H]2COC[C@H]2O)nn1)NS(=O)(=O)c1ccc(C)cc1 | 0.0779
3. C=CC[C@@H]1C=C[C@H](ON=C(C)CCC(=O)OC[C@H]2O[C@H](c3ccccc3)C=C[C@@H]2Oc2ccc(OC)cc2)[C@@H](CO)O1 | 0.342

Bench note: what composite z-score did CC(=O)OC[C@H]1O[C@H](CC=NO[C@H](C)c2cn([C@H](CO)Cc3ccccc3)nn2)C=C[C@@H]1OC(C)=O show?
0.154

====

# key: entry, value: composite z-score
# ASSAY: binders of probe aFGF2 on microarray, primary screen, stem cell growth factor project, biochemical, small-molecule microarray, fluorescence 635/667 (AID 1067);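 note: measures binding of biotinylated aFGF2 protein to printed compounds on slides; z-score merges feature fluorescence and signal-to-noise across triplicate slides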
# CONDITION_CONTEXT: higher = more signal
Just the number, please.

Worked examples, 3 compounds total:
1) C=CC[C@@H]1C=C[C@H](ON=C2[C@H]3CCn4c(=O)n(-c5ccccc5)c(=O)n4[C@H]3[C@H](O)[C@@H]3O[C@H]23)[C@@H](CO)O1 | -0.065
2) COc1cccc([C@@H]2Oc3ccc(OC)cc3C(=O)[C@H]2O)c1 | 0.0288
3) CC(CCN1CCCCc2nc(C)c(C)cc21)=NO[C@@H](C)c1cn([C@H](CO)Cc2ccccc2)nn1 | -0.177

Bench note: what composite z-score did COCCNC(=O)OCC1CCCC2(CC(OC(=O)NCc3ccc4c(c3)OCO4)CC(CCC(=O)N[C@@H](C)C(=O)OC)O2)O1 (some centres not stated) show?
-0.116

Bench note: what composite z-score did COC(=O)[C@H]1[C@@H](O)[C@@]2(O)c3ccccc3O[C@@]2(c2ccccc2)[C@@H]1c1ccccc1 show?
-0.114

Bench note: what composite z-score did CCOC(=O)[C@H](CC(C)C)NC(=O)CCC1CC(OC(=O)NCc2cccc3ccccc23)CC2(CCCC(COC(=O)NCCOc3ccccc3)O2)O1 (some centres not stated) show?
-0.016

Bench note: what composite z-score did O=C1C[C@@H](O)[C@@H](O)[C@@H]2[C@@H]3C(=O)N(Cc4ccccc4)C(=O)[C@@H]3CC[C@@H]12 show?
-0.0573

====

# TARGET_OR_TEST_SYSTEM: Dihydroorotate dehydrogenase (quinone), mitochondrial (Plasmodium falciparum (isolate 3D7))
# ASSAY: PfDHODH enzyme inhibitors, primary screen, biochemical, C-terminal His tag, absorbance 600 nm (AID 1175);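 note: recombinant parasite enzyme with a five histidine tag at its C terminus; test concentration not given here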
# CONDITION_CONTEXT: DCIP absorbance 600 nm, called active from +8 up or from −8 down
The source made the active and inactive calls.
Your reply should match one of these outcome classes. 1 (active), -1 (inactive)

The following compounds have reported results that may help.
1. COc1ccc(O[C@H]2C=C[C@@H](c3ccccc3)O[C@@H]2CON=C(C)CCC(=O)OC[C@H]2O[C@H](c3ccccc3)C=C[C@@H]2Oc2ccc(OC)cc2)cc1 | -1
2. COC(=O)[C@H](C)NC(=O)CCC1CC(OC(=O)NCc2cccc3ccccc23)CC2(CCCC(COC(=O)NCC(c3ccccc3)c3ccccc3)O2)O1 (stereo partly specified) | -1
3. COc1cccc([C@H]2Oc3ccc(OC)cc3C(=NOC[C@@H](C)[C@H](OCc3ccccc3)C(C)C)[C@@H]2O)c1 | -1

Tell me the assay call for CON=C(C)CCC(=O)OC[C@H]1O[C@H](c2ccccc2)C=C[C@@H]1Oc1ccc(OC)cc1 please.
-1

====

# ASSAY: MM1S cell viability effects, profiling panel, calcein-AM fluorescence, 48 h, basal (AID 1165);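 note: viability of MM1S multiple myeloma cells under basal unstimulated conditions; test concentration not given here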
# CONDITION_CONTEXT: higher = more signal
OBSERVED_PROPERTY: z-score
Just the number, please.

Worked examples, 4 compounds total:
1) CCOC(=O)[C@H](Cc1ccccc1)NC(=O)CCC1CC(OC(=O)NCc2ccc3c(c2)OCO3)CC2(CCCC(COC(=O)NCCc3ccccc3OC)O2)O1 (stereo not given in full) | -0.271
2) CCCNC(=O)OC[C@H]1O[C@H](CCON=Cc2ccc(C(=O)N3[C@H](c4ccc(C)cc4)[C@@H](C)CC[C@H]3C(=O)OC)cc2)C=C[C@@H]1Oc1ccc(OC)cc1 | -0.164
3) COC(=O)[C@H](C)NC(=O)CCC1CC(OC(=O)NCc2ccc3c(c2)OCO3)CC2(CCCC(COC(=O)NCC(c3ccccc3)c3ccccc3)O2)O1 (stereo not given in full) | -3.53
4) COC(=O)NCC=Cc1nc(CCCO)co1 | 0.225

Bench note: what z-score did COc1ccc(O[C@H]2C=C[C@@H](c3ccccc3)O[C@@H]2CON=C(C)C)cc1 show?
-1.53
